Assay: AUC (0 to 8 hrs) in rat at 3 mg/kg, po administered in PBS buffer at pH 6.8
Format: ADME, organism-based
Design: time < 8 hr, dose 3 mg/kg, route oral
Conditions: plasma
experimentalEndpoint: AUC(0-t) at 8 h

Input: Give the reported value of AUC(0-t) at 8 h for this record: `NC[C@]1(c2cccc(Cl)c2)CC[C@H](N2CCn3c(nnc3C(F)(F)F)C2=O)CC1`
Output: 0.214 µM·h

* * *

This document collects pIC50 values reported for UniProt:P10635.
Sequence (P10635 whole entry): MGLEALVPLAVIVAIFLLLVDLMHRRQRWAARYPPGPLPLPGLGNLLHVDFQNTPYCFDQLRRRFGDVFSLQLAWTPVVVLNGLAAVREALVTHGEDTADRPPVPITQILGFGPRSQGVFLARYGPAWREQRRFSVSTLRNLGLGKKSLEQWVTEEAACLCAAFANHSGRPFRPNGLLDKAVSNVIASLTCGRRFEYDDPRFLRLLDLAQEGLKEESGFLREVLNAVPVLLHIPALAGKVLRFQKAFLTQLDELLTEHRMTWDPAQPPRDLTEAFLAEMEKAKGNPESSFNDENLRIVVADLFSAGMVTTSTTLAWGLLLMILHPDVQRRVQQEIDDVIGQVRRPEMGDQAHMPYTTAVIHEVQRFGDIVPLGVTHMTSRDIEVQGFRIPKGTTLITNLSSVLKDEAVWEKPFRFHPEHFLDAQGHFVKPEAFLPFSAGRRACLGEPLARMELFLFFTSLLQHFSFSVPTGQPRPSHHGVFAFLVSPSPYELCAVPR
Answers are plain numbers, as −log10 of the molar value.

Below are 2 compounds. Give each one its pIC50.
1. NC[C@]1(c2cccc(Cl)c2)CC[C@H](N2CCc3c(nc(C(F)(F)F)nc3C3CC3)C2=O)CC1
2. NC[C@]1(c2cccc(Cl)c2)CC[C@H](N2CCn3c(nnc3C(F)(F)F)C2=O)CC1

Output:
[5.00, 5.35]

* * *

Experiment: Oral bioavailability in rat at 3 mg/kg administered in 10% PEG300/90% PBS
Format: ADME, organism-based
Conditions: in vivo
experimentalEndpoint: bioavailability

Input: Give the reported value of bioavailability for this record: `NC[C@]1(c2cccc(Cl)c2)CC[C@H](n2nc(-c3cccnc3)ccc2=O)CC1`
Output: 92%

* * *

Assay: Tmax in rat at 3 mg/kg, po administered in 10% PEG300/90% PBS
Assay type: ADME, organism-based
Design: dose 3 mg/kg, route oral
Details: in vivo
experimentalEndpoint: Tmax

Input: Give the reported value of Tmax for this record: `NC[C@]1(c2cccc(Cl)c2)CC[C@H](n2nc(-c3cccnc3)ccc2=O)CC1`
Output: 1.8 h

* * *

Assay: Oral bioavailability in rat at 3 mg/kg administered in PBS buffer at pH 6.8
Format: ADME, organism-based
Conditions: in vivo
experimentalEndpoint: bioavailability
Just so you know, I need the unit written after the number.

Input: Give the reported value of bioavailability for this record: `NC[C@]1(c2cccc(Cl)c2)CC[C@H](N2CCn3c(nnc3C(F)(F)F)C2=O)CC1`
Output: 17%

* * *

Assay: Clearance in rat at 1 mg/kg, iv administered in sodium acetate buffer at pH 4.63
Assay type: ADME, organism-based
Design: dose 1 mg/kg, route intravenous
Conditions: in vivo
experimentalEndpoint: clearance (mL/min/kg)
Give bare numbers, in mL/min/kg.

Input: Give the reported value of clearance for this record: `NC[C@]1(c2cccc(Cl)c2)CC[C@H](N2CCc3c(nc(C(F)(F)F)nc3C3CC3)C2=O)CC1`
Output: 9.5

* * *

Assay: Permeability from apical to basolateral side in human Caco2 cells
Format: ADME, cell-based
Conditions: Caco-2, read-out: permeability
Answer each item with its documented Papp A→B.
Answers are plain numbers, in ×10⁻⁶ cm/s.

Known Papp A→B results, listed for orientation:
[
  {
    "smilesData": "NC[C@]1(c2cccc(Cl)c2)CC[C@H](N2CCn3c(nnc3C(F)(F)F)C2=O)CC1",
    "measuredValue": 1.6
  },
  {
    "smilesData": "NC[C@]1(c2cccc(Cl)c2)CC[C@H](n2nc(-c3cccnc3)ccc2=O)CC1",
    "measuredValue": 8.6
  }
]

Consider the additional molecule presented here.
Input: Give the reported value of Papp A→B for this record: `NC[C@]1(c2cccc(Cl)c2)CC[C@H](N2CCc3c(nc(C(F)(F)F)nc3C3CC3)C2=O)CC1`
Output: 4.4

* * *

Assay: Tmax in rat at 3 mg/kg, po administered in PBS buffer at pH 6.8
Format: ADME, organism-based
Set-up: dose 3 mg/kg, route oral
Settings: in vivo
experimentalEndpoint: Tmax (h)
Give bare numbers, in h.

Input: Give the reported value of Tmax for this record: `NC[C@]1(c2cccc(Cl)c2)CC[C@H](N2CCn3c(nnc3C(F)(F)F)C2=O)CC1`
Output: 3.3

* * *

Assay: Oral bioavailability in rat at 3 mg/kg administered in sodium acetate buffer at pH 4.63
Format: ADME, organism-based
Details: in vivo
experimentalEndpoint: bioavailability (%)
Answers are plain numbers, in %.

Input: Give the reported value of bioavailability for this record: `NC[C@]1(c2cccc(Cl)c2)CC[C@H](N2CCc3c(nc(C(F)(F)F)nc3C3CC3)C2=O)CC1`
Output: 78

* * *

Molecular target: Dipeptidyl peptidase 9 (Homo sapiens, UniProt Q86TI2)
Sequence (Q86TI2 whole entry): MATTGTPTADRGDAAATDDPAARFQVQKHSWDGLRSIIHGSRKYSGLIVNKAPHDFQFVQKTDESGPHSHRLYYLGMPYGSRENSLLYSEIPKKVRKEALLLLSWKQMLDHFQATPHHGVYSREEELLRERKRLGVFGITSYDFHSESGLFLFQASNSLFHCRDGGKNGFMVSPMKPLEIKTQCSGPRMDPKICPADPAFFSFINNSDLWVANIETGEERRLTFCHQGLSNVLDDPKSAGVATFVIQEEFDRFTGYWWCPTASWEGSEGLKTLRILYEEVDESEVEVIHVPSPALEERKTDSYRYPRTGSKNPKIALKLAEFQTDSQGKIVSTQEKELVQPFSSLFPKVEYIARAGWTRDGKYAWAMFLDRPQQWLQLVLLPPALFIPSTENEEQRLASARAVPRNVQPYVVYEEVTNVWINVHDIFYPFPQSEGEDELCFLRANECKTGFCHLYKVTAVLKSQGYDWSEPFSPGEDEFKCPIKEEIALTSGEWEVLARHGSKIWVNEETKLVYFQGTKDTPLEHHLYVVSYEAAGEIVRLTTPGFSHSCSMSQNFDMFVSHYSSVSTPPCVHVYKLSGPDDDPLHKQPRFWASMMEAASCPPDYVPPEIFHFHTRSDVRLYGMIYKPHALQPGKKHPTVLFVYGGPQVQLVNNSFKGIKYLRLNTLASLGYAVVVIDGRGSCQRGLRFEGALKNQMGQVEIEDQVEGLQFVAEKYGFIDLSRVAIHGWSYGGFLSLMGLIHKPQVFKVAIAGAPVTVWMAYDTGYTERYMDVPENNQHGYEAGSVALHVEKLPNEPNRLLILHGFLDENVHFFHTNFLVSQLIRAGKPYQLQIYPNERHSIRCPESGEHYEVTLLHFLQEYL
Test: Inhibition of human recombinant DPP9
pIC50: −log10 of the molar value.
experimentalEndpoint: pIC50

[
  {
    "smilesData": "NC[C@]1(c2cccc(Cl)c2)CC[C@H](N2CCn3c(nnc3C(F)(F)F)C2)CC1",
    "measuredTarget": "Dipeptidyl peptidase 9 (Homo sapiens, UniProt Q86TI2)",
    "pIC50": 4.52
  }
]

Below are 3 molecules. Give each one its pIC50.
1. Cc1ccc(=O)n([C@H]2CC[C@](CN)(c3cccc(Cl)c3)CC2)n1
2. NC[C@]1(c2cccc(Cl)c2)CC[C@H](n2nc(-c3cccnc3)ccc2=O)CC1
3. NC[C@]1(c2cccc(Cl)c2)CC[C@H](N2CCc3c(nc(C(F)(F)F)nc3C3CC3)C2)CC1

Output:
1. < 4.52
2. < 4.52
3. < 4.52

* * *

Test: Permeability from basolateral to apical side in human Caco2 cells
Assay type: ADME, cell-based
Details: Caco-2, read-out: permeability
Answer each item with its documented Papp B→A.
Numbers only, in ×10⁻⁶ cm/s.

[
  {
    "smilesData": "NC[C@]1(c2cccc(Cl)c2)CC[C@H](N2CCc3c(nc(C(F)(F)F)nc3C3CC3)C2=O)CC1",
    "Papp B→A / ×10⁻⁶ cm/s": 11
  },
  {
    "smilesData": "NC[C@]1(c2cccc(Cl)c2)CC[C@H](n2nc(-c3cccnc3)ccc2=O)CC1",
    "Papp B→A / ×10⁻⁶ cm/s": 13
  }
]

Consider the additional molecule presented here.
Input: Give the reported value of Papp B→A for this record: `NC[C@]1(c2cccc(Cl)c2)CC[C@H](N2CCn3c(nnc3C(F)(F)F)C2=O)CC1`
Output: 4.8

* * *

Assay: Clearance in rat at 1 mg/kg, iv administered in 10% PEG300/90% PBS
Format: ADME, organism-based
Parameters: dose 1 mg/kg, route intravenous
Details: in vivo
experimentalEndpoint: clearance (mL/min/kg)
Answers are plain numbers, in mL/min/kg.

Input: Give the reported value of clearance for this record: `NC[C@]1(c2cccc(Cl)c2)CC[C@H](n2nc(-c3cccnc3)ccc2=O)CC1`
Output: 29

* * *

Assay: Volume of distribution at steady state in rat at 1 mg/kg, iv administered in sodium acetate buffer at pH 4.63
Assay type: ADME, organism-based
Parameters: dose 1 mg/kg, route intravenous
Settings: in vivo, read-out: Vdss
experimentalEndpoint: Vd (L/kg)
Answers are plain numbers, in L/kg.

Input: Give the reported value of Vd for this record: `NC[C@]1(c2cccc(Cl)c2)CC[C@H](N2CCc3c(nc(C(F)(F)F)nc3C3CC3)C2=O)CC1`
Output: 2.1
